Parameter: Fold change to WT CD80. Scope: all listed entries.
Target: human PD-L1 (human) (UniProt Q9NZQ7)
Sequence (Q9NZQ7 19-290): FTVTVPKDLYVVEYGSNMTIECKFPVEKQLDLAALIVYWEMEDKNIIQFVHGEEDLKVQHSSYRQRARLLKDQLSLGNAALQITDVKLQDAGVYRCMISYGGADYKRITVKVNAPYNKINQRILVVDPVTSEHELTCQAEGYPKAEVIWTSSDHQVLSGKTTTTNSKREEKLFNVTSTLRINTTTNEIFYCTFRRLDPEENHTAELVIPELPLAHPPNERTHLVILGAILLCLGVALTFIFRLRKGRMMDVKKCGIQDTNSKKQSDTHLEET
Experiment: flow cytometry, CHO cells expressing PD-L1
Please state the figure in fold; there is no need to write the unit.

Field: example entries. Status: answers known.
binder="CD80 H18Y/E35D/M47V/V68M/L85M IgV-Fc (Fc fusion) VIHVTKEVKEVATLSCGYNVSVEELAQTRIYWQKDKKMVLTMMSGDVNIWPEYKNRTIFDITNNLSIMILALRPSDEGTYECVVMKYEKDAFKREHLAEVTLSVKAD" quantitative_result=326
binder="CD80 E35D/M47L/Y53F/V68M/A71G/K93R/E95V IgV-Fc (Fc fusion) VIHVTKEVKEVATLSCGHNVSVEELAQTRIYWQKDKKMVLTMMSGDLNIWPEFKNRTIFDITNNLSIMILGLRPSDEGTYECVVLKYEKDAFRRVHLAEVTLSVKAD" quantitative_result=486
binder="CD80 E35D/T41S/D46E/M47I/V68M/K93R/E95V IgV-Fc (Fc fusion) VIHVTKEVKEVATLSCGHNVSVEELAQTRIYWQKDKKMVLSMMSGEINIWPEYKNRTIFDITNNLSIMILALRPSDEGTYECVVLKYEKDAFRRVHLAEVTLSVKAD" quantitative_result=287

Now for the binder whose Fold change to WT CD80 we want.
IN: Which Fold change to WT CD80 is listed for CD80 E35D/M47V/N48K/V68M/A71G/L85M IgV-Fc (Fc fusion) VIHVTKEVKEVATLSCGHNVSVEELAQTRIYWQKDKKMVLTMMSGDVKIWPEYKNRTIFDITNNLSIMILGLRPSDEGTYECVVMKYEKDAFKREHLAEVTLSVKAD ?
OUT: 442
